Assay: Cytotoxicity against mouse NIH/3T3 cells assessed as inhibition of cell viability for 48 hrs in dark by MTT assay
Type: cell-based
Conditions: NIH3T3, 48 h
REPORTED METRIC: IC50

smiles_data=CCCCCN1C(=O)CN/C1=N\c1ccc2cc3ccc(/N=C4\NCC(=O)N4CCCCC)cc3nc2c1.Cl reported_metric=IC50 test_result="> 50 µM"

* * *

Catalogue of pIC50 readings, one per entry.
Test system: L1210
Assay: Cytotoxicity against mouse L1210 cells assessed as inhibition of cell viability for 72 hrs in 1.05 J/cm'2 UV-A irradiation by MTT assay
Assay type: functional, cell-based
Settings: L1210, light or radiation study
pIC50: −log10 of the molar value.
REPORTED METRIC: pIC50

smiles_data=CCCCCCN1C(=O)CN/C1=N\c1ccc2cc3ccc(/N=C4\NCC(=O)N4CCCCCC)cc3nc2c1.Cl test_result=6.19
smiles_data=CCCCCN1C(=O)CN/C1=N\c1ccc2cc3ccc(/N=C4\NCC(=O)N4CCCCC)cc3nc2c1.Cl test_result=6.23
